# TARGET ENTITY: T1, human transferrin receptor (recombinant, for surface plasmon resonance) (human, UniProt P02786 89-760)
# T1 construct: also called huTfR; human transferrin receptor-biotinylated
# T1 sequence (P02786 89-760 limits assumed): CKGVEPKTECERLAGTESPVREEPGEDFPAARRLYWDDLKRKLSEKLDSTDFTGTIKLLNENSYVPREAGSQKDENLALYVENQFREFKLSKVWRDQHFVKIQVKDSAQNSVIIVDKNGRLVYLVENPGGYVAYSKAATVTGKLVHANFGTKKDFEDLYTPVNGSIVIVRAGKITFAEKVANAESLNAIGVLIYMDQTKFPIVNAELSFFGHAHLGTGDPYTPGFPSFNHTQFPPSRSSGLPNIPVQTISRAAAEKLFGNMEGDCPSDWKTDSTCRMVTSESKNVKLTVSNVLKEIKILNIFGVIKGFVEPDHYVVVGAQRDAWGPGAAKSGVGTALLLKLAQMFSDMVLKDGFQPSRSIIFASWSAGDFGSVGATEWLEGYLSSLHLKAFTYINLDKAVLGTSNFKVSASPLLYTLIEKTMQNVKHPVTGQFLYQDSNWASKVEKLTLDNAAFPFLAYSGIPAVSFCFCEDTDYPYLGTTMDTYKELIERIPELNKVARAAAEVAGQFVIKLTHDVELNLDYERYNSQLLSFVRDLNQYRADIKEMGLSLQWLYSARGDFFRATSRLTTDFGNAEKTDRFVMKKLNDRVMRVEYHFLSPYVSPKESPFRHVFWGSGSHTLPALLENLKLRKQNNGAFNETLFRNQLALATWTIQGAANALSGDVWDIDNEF
# ASSAY OVERVIEW: SPR 25C
Provide the reported koff of each item.
One number for each entry, in s⁻¹.

As a guide, the following entries are already answered.
BINDER | DISPLAY UNIT | OBS VALUE
2/99 VH7/VL7 (antibody, V domains shown) VH: QQLVETGGGLIQPGGSLRLSCAASGFSLSSYAMSWVRQAPGKGLEWIGYIWSGGSTDYASWAKGRFTISRDNSKNTLYLQMNSLRAEDTAVYYCARRYGTSYPDYGDANGFDPWGQGTLVTVSS VL: AIQLTQSPSSLSASVGDRVTITCRASQSISSYLAWYQQKPGKAPKLLIYRASTLASGVPSRFSGSGSGTDFTLTISSLQPEDFATYYCQQSYSSSNVDNTFGGGTKVEIK | s⁻¹ | 0.00366
2/99 VH20/VL10 (antibody, V domains shown) VH: QSMQESGPGLVKPSQTLSLTCTVSGFSLSSYAMSWIRQHPGKGLEWIGYIWSGGSTDYAPSLKSRVTISVDTSKNQVSLKLSSVTAADTAVYYCARRYGTSYPDYGDANGFDPWGQGTLVTVSS VL: DIQMTQSPSSLSASVGDRVTITCRASQSISSYLSWYQQKPGKAPKLLIYRASTLASGVPSRFSGSRSGTDFTLTISSLQPEDFATYYCQQSYSSSNVDNTFGGGTKVEIK | s⁻¹ | 0.00705

Moving on to another binder below.
## Input // returns reported koff for input 2/99 VH17/VL2 (antibody, V domains shown) VH: QQLQESGPGLVKPSETLSLTCTVSGFSLSSYAMSWVRQPPGKGLEWIGYIWSGGSTDYNPSLKSRVTISKDTSKNQVSLKLSSVTAADTAVYYCARRYGTSYPDYGDANGFDPWGPGTLVTVSS VL: DIQMTQSPSSLSASVGDRVTITCRASQSISSYLNWYQQKPGKAPKLLIYRASTLASGVPSRFSGSGSGTDFTLTISSLQPEDFATYYCQQSYSSSNVDNTFGGGTKVEIK
## Output 0.00105
